# Test system: P. acnes clinical isolates (clindamycin resistant)
# EXPERIMENT_NOTES: Antimicrobial susceptibility of clindamycin resistant P. acnes clinical isolates against various antibiotics (Table 2)
# Format: cell-based
# EXPERIMENTAL_CONDITIONS: Cutibacterium acnes, P. acnes strain V21A-5
For each entry below, report its MIC value.

MIC recorded for this molecule, CCC[C@@H]1C[C@@H](C(=O)N[C@@H]([C@H]2O[C@H](SC)[C@H](O)[C@@H](O)[C@H]2O)[C@H](C)Cl)N(C)C1 [Clindamycin, clindamycin] , is 1 µg/mL

CC1CCc2c(N3CCC(O)CC3)c(F)cc3c(=O)c(C(=O)O)cn1c23 (stereo not shown) [Nadifloxacin, nadifloxacin] has a reported MIC of < 0.13 µg/mL

Notebook: CC[C@H]1OC(=O)[C@H](C)[C@@H](O[C@H]2C[C@@](C)(OC)[C@@H](O)[C@H](C)O2)[C@H](C)[C@@H](O[C@@H]2O[C@H](C)C[C@H](N(C)C)[C@H]2O)[C@](C)(O)C[C@@H](C)C(=O)[C@H](C)[C@@H](O)[C@]1(C)O [Erythromycin, erythromycin] , MIC read as 100 to 200 µg/mL

Reported MIC for C[C@H]1COc2c(N3CCN(C)CC3)c(F)cc3c(=O)c(C(=O)O)cn1c23 [Levofloxacin, levofloxacin] was < 0.13 µg/mL
